Entry source: ChEMBL document CHEMBL3608284

# Target or test system: UniProt:P28221
# Sequence (P28221 whole entry): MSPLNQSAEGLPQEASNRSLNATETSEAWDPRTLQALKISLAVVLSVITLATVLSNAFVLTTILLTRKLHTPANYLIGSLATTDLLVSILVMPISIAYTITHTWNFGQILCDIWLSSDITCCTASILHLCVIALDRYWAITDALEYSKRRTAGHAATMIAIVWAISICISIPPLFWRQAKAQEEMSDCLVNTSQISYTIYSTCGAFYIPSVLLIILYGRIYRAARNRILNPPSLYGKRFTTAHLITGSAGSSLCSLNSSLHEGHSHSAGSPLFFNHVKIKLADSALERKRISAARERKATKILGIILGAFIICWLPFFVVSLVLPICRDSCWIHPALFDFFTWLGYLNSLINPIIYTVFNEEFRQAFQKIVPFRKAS
# Protocol notes: Displacement of [3H]GR125743 from 5HT1D receptor (unknown origin) at 10 uM
Each entry gets Criterion not met if its inhibition stays under 30%, and Criterion met if its inhibition is 30% or above.

Check this molecule for inhibition at or above 30%: COc1cc2c3c(c1O)-c1cc4c(cc1CC3N(C)CC2c1ccccc1)OCO4 (stereo unspecified)
Criterion not met

Check this molecule for inhibition at or above 30%: COc1cc2c3c(c1OC)-c1cc4c(cc1CC3N(CC1CC1)CC2c1ccccc1)OCO4 (stereo unspecified)
Criterion not met

Check this molecule for inhibition at or above 30%: COc1cc2c3c(c1OCC1CC1)-c1cc4c(cc1CC3N(C)CC2c1ccccc1)OCO4 (stereo unspecified)
Criterion met

Check this molecule for inhibition at or above 30%: CCCOc1c(OC)cc2c3c1-c1cc4c(cc1CC3N(C)CC2c1ccccc1)OCO4 (stereo unspecified)
Criterion not met

Check this molecule for inhibition at or above 30%: CCCCOc1c(OC)cc2c3c1-c1cc4c(cc1CC3N(C)CC2c1ccccc1)OCO4 (stereo unspecified)
Criterion not met

Check this molecule for inhibition at or above 30%: C=CCOc1c(OC)cc2c3c1-c1cc4c(cc1CC3N(C)CC2c1ccccc1)OCO4 (stereo unspecified)
Criterion not met

Check this molecule for inhibition at or above 30%: COc1cc2c3c(c1OC)-c1cc4c(cc1CC3N(C)CC2c1ccccc1)OCO4 (stereo unspecified)
Criterion met

Check this molecule for inhibition at or above 30%: COc1cc2c3c(c1OCc1ccc(Br)cc1)-c1cc4c(cc1CC3N(C)CC2c1ccccc1)OCO4 (stereo unspecified)
Criterion not met

Check this molecule for inhibition at or above 30%: CCN1CC(c2ccccc2)c2cc(OC)c(OC)c3c2C1Cc1cc2c(cc1-3)OCO2 (stereo unspecified)
Criterion not met

Check this molecule for inhibition at or above 30%: CCCCCCOc1c(OC)cc2c3c1-c1cc4c(cc1CC3N(C)CC2c1ccccc1)OCO4 (stereo unspecified)
Criterion not met
